Test: Half-life in rat brain when administered intraperitoneally at a dose of 10 mg/kg
Type: ADME, organism-based
Set-up: dose 10 mg/kg, route intraperitoneal
Details: ip
test_readout: half-life (h)
Write down the numeric answer in h and omit the unit.

### Prompt # get_value(readout='half-life', item= N[C@](CC1c2ccccc2Oc2ccccc21)(C(=O)O)[C@H]1C[C@@H]1C(=O)O )
### Response 4.75

###

Experiment: Plasma concentration after 2 hr at a dose of 10 mg/kg when administered intravenously
Details: iv
test_readout: concentration at 2 h (ng/mL)
Give just the number in ng/mL; leave the unit off.

### Prompt Looking for the measured concentration at 2 h of N[C@](CC1c2ccccc2Oc2ccccc21)(C(=O)O)[C@H]1C[C@@H]1C(=O)O , can you help?
### Response 845

###

Experiment: Maximum concentration achieved in rat brain when administered perorally at a dose of 10 mg/kg
Assay type: ADME, organism-based
Parameters: dose 10 mg/kg, route oral
Details: po
test_readout: Cmax (ng/g)
All answers are understood in ng/g, so give the number only.

### Prompt Using the record for N[C@](CC1c2ccccc2Oc2ccccc21)(C(=O)O)[C@H]1C[C@@H]1C(=O)O , report its Cmax.
### Response 7.4

###

Assay: Brain concentration after 4 hr at a dose of 100 mg/kg when administered perorally
Conditions: po
test_readout: concentration at 4 h (ng/g)
Please respond with the number in ng/g and leave the unit unwritten.

### Prompt # get_value(readout='concentration at 4 h', item= N[C@](CC1c2ccccc2Oc2ccccc21)(C(=O)O)[C@H]1C[C@@H]1C(=O)O )
### Response 20.1

###

Assay: Binding affinity for Group II Metabotropic glutamate receptor was measured using [3H]glutamate in rat forebrain membranes
Type: cell membranes, Membrane
pIC50: −log10 of the molar value.
// label = TRUE if pIC50 is not less than 6, otherwise FALSE

### Prompt Reported pIC50 reaches at least 6 for N[C@@](CC(c1ccccc1)c1ccccc1)(C(=O)O)[C@H]1C[C@@H]1C(=O)O ?
### Response FALSE

### Prompt Textbook exercise: given the entry N[C@@](CCc1ccccc1C(F)(F)F)(C(=O)O)C1C[C@@H]1C(=O)O (stereo partly specified) , state whether its pIC50 is greater than or equal to 6.
### Response TRUE

### Prompt Is reported pIC50 greater than or equal to 6 here: N[C@@](CCc1ccc(O)cc1)(C(=O)O)C1C[C@@H]1C(=O)O (stereo partly specified)
### Response TRUE

### Prompt Check the entry N[C@](CC(c1ccccc1)c1ccccc1)(C(=O)O)[C@H]1C[C@@H]1C(=O)O : does pIC50 equal or exceed 6?
### Response TRUE

### Prompt Check this compound for pIC50 at or above 6: COc1ccc(CC[C@](N)(C(=O)O)C2C[C@@H]2C(=O)O)cc1OC (stereo partly specified)
### Response TRUE

### Prompt Can CS(=O)(=O)c1cccc(CC[C@](N)(C(=O)O)C2C[C@@H]2C(=O)O)c1 (stereo partly specified) be said to have pIC50 at or above 6?
### Response FALSE

### Prompt Textbook exercise: given the entry Cc1ccccc1CC[C@](N)(C(=O)O)C1C[C@@H]1C(=O)O (stereo partly specified) , state whether its pIC50 is greater than or equal to 6.
### Response TRUE

### Prompt Form field: pIC50 at least 6? Entry: N[C@@H](C(=O)O)C1C[C@@H]1C(=O)O (stereo partly specified)
### Response TRUE

### Prompt Threshold query (pIC50 >= 6) on COc1ccc(OC)c(CC[C@](N)(C(=O)O)C2C[C@@H]2C(=O)O)c1 (stereo partly specified)
### Response TRUE

### Prompt Reported pIC50 reaches at least 6 for N[C@@](CCc1ccc(F)cc1F)(C(=O)O)C1C[C@@H]1C(=O)O (stereo partly specified) ?
### Response TRUE

### Prompt Please indicate if the recorded pIC50 for N[C@@](CC1c2ccccc2Oc2ccccc21)(C(=O)O)[C@H]1C[C@@H]1C(=O)O meets or exceeds 6.
### Response TRUE

### Prompt Assess whether reported pIC50 for N[C@@](CCc1ccccc1F)(C(=O)O)C1C[C@@H]1C(=O)O (stereo partly specified) sits at 6 or higher.
### Response TRUE

### Prompt Determine whether measured pIC50 meets or exceeds 6 for N[C@@](CCc1cccc(Cl)c1)(C(=O)O)C1C[C@@H]1C(=O)O (stereo partly specified)
### Response TRUE

### Prompt Check this compound for pIC50 at or above 6: N[C@@](CCc1ccc(F)cc1)(C(=O)O)C1C[C@@H]1C(=O)O (stereo partly specified)
### Response TRUE

### Prompt In plain terms: is recorded pIC50 at least 6 for N[C@@](CCc1cc(Cl)cc(Cl)c1)(C(=O)O)C1C[C@@H]1C(=O)O (stereo partly specified) ?
### Response TRUE

### Prompt Confirm if pIC50 reported for the compound COc1cccc(CC[C@](N)(C(=O)O)C2C[C@@H]2C(=O)O)c1 (stereo partly specified) is 6 or above.
### Response TRUE

### Prompt Record CC(C)(C)c1cccc(CC[C@](N)(C(=O)O)C2C[C@@H]2C(=O)O)c1 (stereo partly specified) ; criterion: pIC50 no lower than 6. Met?
### Response FALSE

### Prompt Please check the record N[C@@](CCc1ccccc1O)(C(=O)O)C1C[C@@H]1C(=O)O (stereo partly specified) and state if its pIC50 is at or above 6.
### Response TRUE

### Prompt Determine whether this compound has pIC50 no lower than 6: N[C@@](CCc1ccccc1Oc1ccccc1)(C(=O)O)C1C[C@@H]1C(=O)O (stereo partly specified)
### Response TRUE

These entries and their values trace back to ChEMBL document CHEMBL1131460.
